- Target Of Assay: AKT2 (Homo sapiens, UniProt P31751)
- Sequence (P31751 whole entry): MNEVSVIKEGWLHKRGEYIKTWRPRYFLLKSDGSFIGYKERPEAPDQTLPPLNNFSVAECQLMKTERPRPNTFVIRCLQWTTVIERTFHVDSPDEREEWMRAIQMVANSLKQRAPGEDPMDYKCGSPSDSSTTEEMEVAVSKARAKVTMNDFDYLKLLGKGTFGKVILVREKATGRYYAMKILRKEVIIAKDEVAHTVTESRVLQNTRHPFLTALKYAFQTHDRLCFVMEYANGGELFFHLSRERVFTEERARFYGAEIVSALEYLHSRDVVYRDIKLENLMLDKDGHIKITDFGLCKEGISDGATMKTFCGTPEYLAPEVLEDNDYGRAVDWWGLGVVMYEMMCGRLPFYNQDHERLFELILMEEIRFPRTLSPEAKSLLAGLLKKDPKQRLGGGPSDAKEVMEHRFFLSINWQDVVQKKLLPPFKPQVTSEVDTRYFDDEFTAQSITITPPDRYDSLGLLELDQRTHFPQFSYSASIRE
Reported Endpoint: IC50

// each listed molecule needs a value for IC50
1. CC1(C)CC(=O)c2cc(-c3ccccc3)c(-c3ccc(C4(N)CCC4)cc3)nc2C1 [Example 18]
2. Nc1ncc2c(n1)-c1cc(-c3ccccc3)c(-c3ccc(C4(N)CCC4)cc3)nc1CC2 [Example 17]
3. CN1CC(=O)Nc2cc(-c3ccccc3)c(-c3ccc(C4(N)CCC4)cc3)nc21 [Example 72]
4. N#CCCN1C(=O)COc2nc(-c3ccc(C4(N)CCC4)cc3)c(-c3ccccc3)cc21 [Example 62]
5. N[C@]1(c2ccc(-c3nc4c(cc3-c3ccccc3)N(CC3CC3)C(=O)CO4)cc2)C[C@H](O)C1 [Example 140]
6. N[C@]1(c2ccc(-c3nc4c(cc3-c3ccccc3)N(CC(F)(F)F)C(=O)CO4)cc2)C[C@H](O)C1 [Example 148]

Ans.
1 to 10 µM
1 to 10 µM
1 to 10 µM
0.1 to 1 µM
0.1 to 1 µM
0.1 to 1 µM

----------
Exercise: for every item that follows, state its recorded pIC50.
- Target Of Assay: AKT1 (Homo sapiens, UniProt P31749)
- Sequence (P31749 whole entry): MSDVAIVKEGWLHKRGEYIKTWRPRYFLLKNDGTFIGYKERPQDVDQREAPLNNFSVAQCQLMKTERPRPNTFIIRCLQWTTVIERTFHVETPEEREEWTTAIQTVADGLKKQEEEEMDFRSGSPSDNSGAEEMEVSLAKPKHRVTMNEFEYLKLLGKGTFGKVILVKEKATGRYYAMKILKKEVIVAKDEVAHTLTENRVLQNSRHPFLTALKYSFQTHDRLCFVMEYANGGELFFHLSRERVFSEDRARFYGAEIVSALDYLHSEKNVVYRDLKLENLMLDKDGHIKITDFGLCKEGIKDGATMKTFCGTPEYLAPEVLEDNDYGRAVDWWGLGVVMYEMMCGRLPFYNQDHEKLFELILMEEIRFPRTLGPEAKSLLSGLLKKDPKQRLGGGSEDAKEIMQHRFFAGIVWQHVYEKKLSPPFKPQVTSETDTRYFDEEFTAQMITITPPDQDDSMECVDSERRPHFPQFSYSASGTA
pIC50: −log10 of the molar value.

Sample answers from the record:
molecular_string=CN1C(=O)CCNc2nc(-c3ccc(C4(N)CCC4)cc3)c(-c3ccccc3)cc21 reported_endpoint=pIC50 observed_result="5.00 to 6.00"
molecular_string=NC1(c2ccc(-c3nc4c(cc3-c3ccccc3)-n3c(Br)nnc3CO4)cc2)CCC1 reported_endpoint=pIC50 observed_result="6.00 to 7.00"
molecular_string=N#CCCN1C(=O)COc2nc(-c3ccc(C4(N)CCC4)cc3)c(-c3ccccc3)cc21 reported_endpoint=pIC50 observed_result="5.00 to 6.00"
molecular_string=NC1(c2ccc(-c3nc4c(cc3-c3ccccc3)C(=O)NCC4)cc2)CCC1 reported_endpoint=pIC50 observed_result="≥ 7.00"
molecular_string=NC1(c2ccc(-c3nc4c(cc3-c3ccccc3)-n3c(nnc3-c3ccncc3)CO4)cc2)CCC1 reported_endpoint=pIC50 observed_result="≥ 7.00"
molecular_string=CC1(C)Cc2nc(-c3ccc(C4(N)CCC4)cc3)c(-c3ccccc3)cc2-c2n[nH]cc21 reported_endpoint=pIC50 observed_result="6.00 to 7.00"
molecular_string=CO/N=C1\COc2nc(-c3ccc(C4(N)CCC4)cc3)c(-c3ccccc3)cc2N1C reported_endpoint=pIC50 observed_result="5.00 to 6.00"
molecular_string=NC1(c2ccc(-c3nc4c(cc3-c3ccccc3)N(CCF)C(=O)CCN4)cc2)CCC1 reported_endpoint=pIC50 observed_result="5.00 to 6.00"

// each listed compound needs a value for pIC50
1. CN1C(=O)COc2nc(-c3ccc([C@]4(N)C[C@H](O)C4)cc3)c(-c3ccccc3)cc21
2. CN1C(=O)COc2nc(-c3ccc(C4(N)CCC4)cc3)c(-c3ccc(F)cc3)cc21
3. NC1(c2ccc(-c3nc4c(cc3-c3ccccc3)N(c3cccnc3)CCO4)cc2)CCC1
4. NC1(c2ccc(-c3nc4c(cc3-c3ccccc3)N(Cc3ncc[nH]3)C(=O)CO4)cc2)CCC1
5. CN1C(=O)COc2nc(-c3ccc(CN)cc3)c(-c3ccccc3)cc21
6. Cn1ncc2c1-c1cc(-c3ccccc3)c(-c3ccc(C4(N)CCC4)cc3)nc1CC2
7. CCCc1nnc2n1-c1cc(-c3ccccc3)c(-c3ccc(C4(N)CCC4)cc3)nc1OC2
8. CO/N=C1\CCCc2nc(-c3ccc(C4(N)CCC4)cc3)c(-c3ccccc3)cc21

Ans.
1: ≥ 7.00; 2: 6.00 to 7.00; 3: 6.00 to 7.00; 4: 5.00 to 6.00; 5: 5.00 to 6.00; 6: 6.00 to 7.00; 7: ≥ 7.00; 8: 5.00 to 6.00

Qu. Name the recorded pIC50 for "C#CCN1C(=O)COc2nc(-c3ccc(C4(N)CCC4)cc3)c(-c3ccccc3)cc21" .
Ans. 6.00 to 7.00

----------
AKT1 (Homo sapiens, UniProt P31749) measurements of IC50, listed per entry.

molecular_string=NC(=O)CN1C(=O)COc2nc(-c3ccc(C4(N)CCC4)cc3)c(-c3ccccc3)cc21 observed_result="1 to 10 µM"

// each listed compound needs a value for IC50
1. CN1C(=O)COc2nc(-c3ccc([C@]4(N)C[C@@H](O)C4)cc3)c(-c3ccccc3)cc21
2. N#CCN1CCOc2nc(-c3ccc(C4(N)CCC4)cc3)c(-c3ccccc3)cc21
3. CN(C)CCN1CCc2nc(-c3ccc(C4(N)CCC4)cc3)c(-c3ccccc3)cc2C1=O

Ans.
["0.1 to 1 µM", "0.1 to 1 µM", "0.1 to 1 µM"]

----------
AKT2 (Homo sapiens) measurements of IC50, listed per entry.

Sample answers from the record:
molecule=CC(C)c1nnc2n1-c1cc(-c3ccccc3)c(-c3ccc(C4(N)CCC4)cc3)nc1OC2 reported_endpoint=IC50 observed_result="1000 to 10000 nM"
molecule=NC1(c2ccc(-c3nc4c(cc3-c3ccccc3)N(C3CCC3)C(=O)CO4)cc2)CCC1 reported_endpoint=IC50 observed_result="100 to 1000 nM"
molecule=NC1(c2ccc(-c3nc4c(cc3-c3ccccc3)-c3n[nH]c(O)c3CC4)cc2)CCC1 reported_endpoint=IC50 observed_result="1000 to 10000 nM"
molecule=Cn1nc2n(c1=O)-c1cc(-c3ccccc3)c(-c3ccc(C4(N)CCC4)cc3)nc1OC2 reported_endpoint=IC50 observed_result="100 to 1000 nM"
molecule="CC(C#N)N1C(=O)COc2nc(-c3ccc(C4(N)CCC4)cc3)c(-c3ccccc3)cc21 (stereo not shown)" reported_endpoint=IC50 observed_result="100 to 1000 nM"

// each listed molecule needs a value for IC50
1. NC1(c2ccc(-c3nc4c(cc3-c3ccccc3)N(c3cccnc3)CCO4)cc2)CCC1
2. NC1(c2ccc(-c3nc4c(cc3-c3ccccc3)N(CCF)C(=O)N(CCF)C4)cc2)CCC1

Ans.
1: ≤ 100 nM; 2: ≤ 100 nM

// each listed molecule needs a value for IC50
1. NC1(c2ccc(-c3nc4c(cc3-c3ccccc3)N(CC3CC3)C(=O)CO4)cc2)CCC1
2. CCc1nnc2n1-c1cc(-c3ccccc3)c(-c3ccc(CN)cc3)nc1OC2
3. CSc1[nH]nc2c1CCc1nc(-c3ccc(C4(N)CCC4)cc3)c(-c3ccccc3)cc1-2
4. N[C@]1(c2ccc(-c3nc4c(cc3-c3ccccc3)-n3c(n[nH]c3=O)CO4)cc2)C[C@H](O)C1
5. CO/N=C1\CCCc2nc(-c3ccc(C4(N)CCC4)cc3)c(-c3ccccc3)cc21
6. CN1C(=O)COc2nc(-c3ccc(C4(N)CCC4)cc3)c(CC3CC3)cc21

Ans.
["≤ 100 nM", "1000 to 10000 nM", "1000 to 10000 nM", "100 to 1000 nM", "> 10000 nM", "> 10000 nM"]

// each listed molecule needs a value for IC50
1. CC1Oc2nc(-c3ccc(C4(N)CCC4)cc3)c(-c3ccccc3)cc2NC1=O (stereo not shown)
2. C[C@]1(O)C[C@@](N)(c2ccc(-c3nc4c(cc3-c3ccccc3)-n3c(nnc3C(F)F)CO4)cc2)C1

Ans.
["100 to 1000 nM", "100 to 1000 nM"]

Qu. Name the recorded IC50 for "CN1CCc2nc(-c3ccc(C4(N)CCC4)cc3)c(-c3ccccc3)cc2C1=O" .
Ans. 1000 to 10000 nM

----------
AKT3 (Homo sapiens) measurements of pIC50, listed per entry.
Sequence (Q9Y243 whole entry): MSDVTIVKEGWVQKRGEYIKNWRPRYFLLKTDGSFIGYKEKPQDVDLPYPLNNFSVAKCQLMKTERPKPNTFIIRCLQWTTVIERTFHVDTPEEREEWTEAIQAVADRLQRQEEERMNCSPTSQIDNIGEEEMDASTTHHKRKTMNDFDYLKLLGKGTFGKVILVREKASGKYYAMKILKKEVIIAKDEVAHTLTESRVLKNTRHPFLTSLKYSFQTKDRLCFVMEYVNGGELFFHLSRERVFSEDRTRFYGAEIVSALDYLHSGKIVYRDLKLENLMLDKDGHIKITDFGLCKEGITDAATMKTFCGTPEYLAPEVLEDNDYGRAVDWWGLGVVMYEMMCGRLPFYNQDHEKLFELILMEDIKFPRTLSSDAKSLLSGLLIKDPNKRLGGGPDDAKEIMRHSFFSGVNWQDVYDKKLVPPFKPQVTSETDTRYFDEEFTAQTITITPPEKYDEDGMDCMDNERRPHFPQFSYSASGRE
pIC50: −log10 of the molar value.

molecular_string=NC1(c2ccc(-c3nc4c(cc3-c3ccccc3)-n3c(nnc3C(F)(F)F)CO4)cc2)CCC1 reported_endpoint=pIC50 observed_result="5.00 to 6.00"

// each listed molecule needs a value for pIC50
1. N#CCN1CCc2nc(-c3ccc(C4(N)CCC4)cc3)c(-c3ccccc3)cc2C1=O
2. CCc1nnc2n1-c1cc(-c3ccccc3)c(-c3ccc([C@]4(N)C[C@@H](O)C4)cc3)nc1OC2
3. CN1C(=O)COc2nc(-c3ccc(CN)cc3)c(-c3ccccc3)cc21
4. CN1Cc2nc(-c3ccc(C4(N)CCC4)cc3)c(-c3ccccc3)cc2N(C)C1=O
5. Cc1nc2c([nH]1)CCc1nc(-c3ccc(C4(N)CCC4)cc3)c(-c3ccccc3)cc1-2

Ans.
["< 5.00", "5.00 to 6.00", "5.00 to 6.00", "5.00 to 6.00", "5.00 to 6.00"]

// each listed molecule needs a value for pIC50
1. NC1(c2ccc(-c3nc4c(cc3-c3ccccc3)C(=O)CCC4)cc2)CCC1
2. CC(C)c1nnc2n1-c1cc(-c3ccccc3)c(-c3ccc(C4(N)CCC4)cc3)nc1OC2

Ans.
["< 5.00", "5.00 to 6.00"]
